# Test system: SR leukemia
# method-notes: NCI tumour cell line growth inhibition, 48 h
assay-readout: TGI

Worked cases, answers included:
Cn1ccnc1C(=O)/C=C/c1ccc(C(=O)Nc2ccccc2O)cc1 = 6.55 µM
COc1cc2c(cc1OCCCCCn1c(-c3ccco3)nc3ccccc31)N=C[C@@H]1CCCN1C2=O = < 0.01 µM
COc1ccc(C(=O)Cn2c(C(C)=O)nc3ccccc32)cc1 = > 100 µM
COc1ccc(/C=C(\C(=O)OCC(C)C)c2ccc(OC)c(OC)c2)cc1OC = > 100 µM
CC1CC(=O)C(CC(=O)O)C1C(C(=O)C(=O)Nc1c(C#N)cccc1[N+](=O)[O-])[N+](=O)[O-] (centres undefined) = > 100 µM

# compound O=C(Nc1cccnc1)c1cccc([N+](=O)[O-])c1 ; its TGI = > 100 µM

# compound N#CCC12CC=CCC1=C(O)C(=O)c1ccc(O)cc12 (centres undefined) ; its TGI = > 100 µM

# compound CCCCCCCCCCCCSC(=NC)NC ; its TGI = 5.32 µM

# compound O=C(N1CCC(CN=c2cc3n(-c4ccc(Cl)cc4)c4ccccc4nc-3cc2Nc2ccc(Cl)cc2)CC1)N1CC1 ; its TGI = 2.25 µM

# compound COC(=O)c1cc2c3ccccc3n3c(=O)c4cc5cc(OC)c(N(S(=O)(=O)c6ccc(C)cc6)S(=O)(=O)c6ccc(C)cc6)cc5nc4c(n1)c23 ; its TGI = > 100 µM

# compound Cc1ccc(S(=O)C[C@@]2(C(F)F)NC(=O)NC2=O)cc1 (some centres undefined) ; its TGI = > 100 µM

# compound O=C1CCCC(=O)C1=C(O)CCCCCCCCCCc1ccccc1 ; its TGI = 71.9 µM
